Data credit: ChEMBL document CHEMBL1147089

test: Binding affinity to HIV1 Nef by isothermal titration calorimetry method; parameters: species or system Human immunodeficiency virus 1
measure: pKd
In textbook form, pKd equals minus log to base ten of the concentration in mol/L.

For orientation, consider the following solved cases.
* CC(C)(C)c1ccc(OCC(=O)Nc2cccc(C(=O)O)c2)cc1 | 6.01
* O=C(O)CCCc1ccc2ccc3ccccc3c2c1 | 5.17
* CC(C)(C)c1ccc(OC(=O)Nc2ccc(O)c(C(=O)O)c2)cc1 | 5.74
* COc1cc2ccccc2c2cc([N+](=O)[O-])oc12 | 4.96

Consider the record given below.
Consider the molecule CN(C)c1ccc2nc3c(C(=O)O)cc(=O)c(O)c-3oc2c1 and give its measured pKd.
5.89
